assayDetails: M. tuberculosis H37Rv growth inhibitors, H37Rv strain (AID 1626);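 also: bacteria incubated seven days before Alamar blue readout; 0% = bacteria only wells and 100% = bacteria with antibiotic wells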
conditionSummary: hits give high values, concentration not given here
The whole screen tested about 220,000 compounds, of which about 2,000 (0.91%) were called active. Not shown: some 2% with an inconclusive outcome. A selection follows. Potency and affinity values are given separately.
measureName: inhibition

[[record]]
compound = "c1ccc(-c2nc(-n3ccnc3)nc(-n3ccnc3)n2)cc1"
measurename = "inhibition"
measured = "3.02% (inactive)"

[[record]]
compound = "CCOC(=O)c1sc(N2N=C(C)C(N=Nc3cccc(C)c3)C2=O)nc1C (stereo unspecified)"
measurename = "inhibition"
measured = "57.3% (inactive)"

[[record]]
compound = "N#CC1=C(N)NC(SCC(=O)c2ccc(Br)cc2)=C(C#N)C12CCCCC2"
measurename = "inhibition"
measured = "79.4% (inactive)"

[[record]]
compound = "O=[N+]([O-])c1ccc(Sc2cccc3cccnc23)cc1"
measurename = "inhibition"
measured = "30.8% (inactive)"

[[record]]
compound = "COc1ccccc1NC(=O)c1c(C)oc2c1CCCC2"
measurename = "inhibition"
measured = "-16.9% (inactive)"

[[record]]
compound = "Nc1nc(N2CCCCC2)nc(N(c2ccccc2)c2ccccc2)n1"
measurename = "inhibition"
measured = "1.26% (inactive)"

[[record]]
compound = "O=C(CCn1c(=O)oc2ccccc21)N(Cc1ccccc1)c1ccccc1"
measurename = "inhibition"
measured = "-1.76% (inactive)"

[[record]]
compound = "CCCCNc1nc(N(C)c2ccccc2)nc(-n2ccnc2)n1"
measurename = "inhibition"
measured = "51.3% (inactive)"

[[record]]
compound = "c1ccc(N(c2ccccc2)c2nc(-n3ccnc3)nc(-n3ccnc3)n2)cc1"
measurename = "inhibition"
measured = "-4.28% (inactive)"

[[record]]
compound = "CN(C)C(=O)Cn1c(SCC(=O)N2CCCc3ccccc32)nc2ccccc21"
measurename = "inhibition"
measured = "-5.91% (inactive)"

[[record]]
compound = "N#CC1=C(N)NC(SCC(=O)c2ccc(Cl)cc2)=C(C#N)C12CCCC2"
measurename = "inhibition"
measured = "21.4% (inactive)"


----------
assayDetails: M. tuberculosis H37Rv growth inhibitors, H37Rv strain (AID 1626);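 also: bacteria incubated seven days before Alamar blue readout; 0% = bacteria only wells and 100% = bacteria with antibiotic wells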
conditionSummary: hits give high values, concentration not given here
Screen size: about 220,000 compounds; about 2,000 (0.91%) were called active. Roughly 2% stayed inconclusive and do not appear here. A selection follows. Entries with a potency or affinity are not part of this list.
measureName: inhibition (%)

[[record]]
molecule = "CC(/C=C/c1ccccc1)=N\\Nc1nc(-c2ccccc2)cs1"
measured = 5.57

[[record]]
molecule = "O=C1NC(=O)/C(=C/c2cccc(O)c2)N1"
measured = 8.98

[[record]]
molecule = "CN(CCCNC(=O)CSc1cc(=O)n(C)c2cc(Cl)ccc12)Cc1ccccc1"
measured = 4.19

[[record]]
molecule = "Cc1ccc(OCc2nnc(SCC(=O)c3cccc([N+](=O)[O-])c3)n2C)cc1"
measured = 3.44

[[record]]
molecule = "Cc1ccc(NS(=O)(=O)c2cc(C(=O)Nc3cccc(N(C)S(C)(=O)=O)c3)ccc2C)c(C)c1"
measured = 8.69

[[record]]
molecule = "CCOc1ccc(CNC(=S)N/N=C\\c2ccc([N+](=O)[O-])cc2)cc1"
measured = 2.73

[[record]]
molecule = "COc1ccc(CCNC(=O)CSCc2ccc(F)cc2)cc1OC"
measured = -4.44

[[record]]
molecule = "CSc1nc(Oc2ccc(F)cc2)c2ccccc2n1"
measured = 8.64

[[record]]
molecule = "CC(=O)Nc1ccc(Oc2nc(-c3ccccn3)nc3ccccc23)cc1"
measured = -12.6

[[record]]
molecule = "COc1cccc(-c2nc(N3CCN(c4ccccc4)CC3)c3ccccc3n2)c1O"
measured = -0.61

[[record]]
molecule = "CC(=O)Nc1cccc(Oc2nc(-c3ccccn3)nc3ccccc23)c1"
measured = 3.26

[[record]]
molecule = "CCn1nc(C(=O)NCCc2ccc(S(N)(=O)=O)cc2)c2ccccc2c1=O"
measured = -2.56

[[record]]
molecule = "COc1ccc(CCNC(=O)COc2ccc(-c3ccc(C#N)cc3)cc2)cc1"
measured = -19.4

[[record]]
molecule = "CCN(CC)C(=O)C(=O)c1cccn1-c1cccc(Cl)c1C#N"
measured = -4.03

[[record]]
molecule = "CCOC(=O)CSc1nc2ccccc2c(=O)n1CC(C)C"
measured = 7.35

[[record]]
molecule = "CN(Cc1ccccc1)C(=O)c1cc2ccccc2o1"
measured = 6.83

[[record]]
molecule = "O=C(NNS(=O)(=O)c1ccccc1Cl)c1nn(-c2ccc(F)cc2)ccc1=O"
measured = 2.66

[[record]]
molecule = "O=C(NC1=NC2CCCCC2N1)c1ccccc1 (stereo not drawn)"
measured = 1.79

[[record]]
molecule = "C/C(=N\\Nc1nc(-c2ccccn2)nc2ccccc12)c1ccc(F)cc1"
measured = 67.4

[[record]]
molecule = "CC1CCN(S(=O)(=O)N2CCC(C(=O)O)CC2)CC1"
measured = -4.2

[[record]]
molecule = "Cc1ccc(Oc2nc(C(F)(F)F)nc3ccccc23)cc1"
measured = 9.79

[[record]]
molecule = "COc1ccc(C(=O)NCCN2C(=O)S/C(=C\\c3cccnc3)C2=O)c(OC)c1OC"
measured = 8.22

[[record]]
molecule = "Cc1cc(C)c2nc(SC(C)C#N)cc(C)c2c1 (stereo not drawn)"
measured = 9.89

